Every entry's value here was drawn from ChEMBL document CHEMBL4359913.

- TARGET: Chromodomain Y-like protein (Homo sapiens, UniProt Q9Y232)
- Sequence (Q9Y232 whole entry, the tested form may be a part): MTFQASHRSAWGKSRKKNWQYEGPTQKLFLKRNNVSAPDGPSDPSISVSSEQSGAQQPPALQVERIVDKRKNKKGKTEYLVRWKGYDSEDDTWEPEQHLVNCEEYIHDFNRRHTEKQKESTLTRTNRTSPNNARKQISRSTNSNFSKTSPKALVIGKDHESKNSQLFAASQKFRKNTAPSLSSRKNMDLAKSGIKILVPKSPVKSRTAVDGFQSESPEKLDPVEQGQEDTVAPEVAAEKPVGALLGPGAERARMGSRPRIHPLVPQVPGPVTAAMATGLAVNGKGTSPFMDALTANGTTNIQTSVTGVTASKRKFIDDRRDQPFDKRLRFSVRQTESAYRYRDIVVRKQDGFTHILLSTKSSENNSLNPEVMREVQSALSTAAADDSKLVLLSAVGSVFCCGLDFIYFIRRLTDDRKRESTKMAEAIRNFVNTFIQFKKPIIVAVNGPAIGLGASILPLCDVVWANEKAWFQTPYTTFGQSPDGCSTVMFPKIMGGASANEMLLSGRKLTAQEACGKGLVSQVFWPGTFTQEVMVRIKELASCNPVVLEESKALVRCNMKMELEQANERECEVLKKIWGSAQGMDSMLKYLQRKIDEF
- EXPERIMENT: Binding affinity to recombinant human N-terminal GST-tagged CDYL (1 to 60 residues) expressed in Escherichia coli […] by SPR analysis
Where a SMILES comes first, the peptide text is derived from it. [ ]: non-standard residue; d: D form. The star is where a group is joined. Benzoyl(4-tBu) = CC(C)(C)c1ccc(C(=O)*)cc1; Lys(Et2) = CCN(CC)CCCC[C@H](N)C(=O)O
Each item that follows carries a reported Kd.
QUANTITY_MEASURED: Kd (µM)

| MOLECULE | TARGET | QUANTITY_MEASURED | RECORDED_RESULT |
| --- | --- | --- | --- |
| COc1ccc2oc(=O)n(CC(=O)c3ccc(N(C)C)cc3)c2c1 | Chromodomain Y-like protein (Homo sapiens, UniProt Q9Y232) | Kd | 15.5 |
| COc1ccc(C(=O)Cn2c(=O)oc3ccccc32)cc1OC | Chromodomain Y-like protein (Homo sapiens, UniProt Q9Y232) | Kd | 14.6 |
| COc1cccc(C(=O)Cn2cnc3ccccc32)c1 | Chromodomain Y-like protein (Homo sapiens, UniProt Q9Y232) | Kd | 10.1 |
| O=C(Cn1c(=O)oc2ccc(F)cc21)c1c[nH]c2ccccc12 | Chromodomain Y-like protein (Homo sapiens, UniProt Q9Y232) | Kd | 5.1 |
| COc1cccc(C(=O)Cn2c(=O)[nH]c3ccc(Cl)cc32)c1 | Chromodomain Y-like protein (Homo sapiens, UniProt Q9Y232) | Kd | 14.8 |
| COc1cccc(C(=O)CC2C(=O)Nc3ccc(Cl)cc32)c1 (racemic) | Chromodomain Y-like protein (Homo sapiens, UniProt Q9Y232) | Kd | 1.2 |
| CCCN1C(=O)C(O)(CC(=O)c2cc(Br)c(Br)o2)c2cc(Cl)ccc21 (centres undefined) | Chromodomain Y-like protein (Homo sapiens, UniProt Q9Y232) | Kd | 15.4 |
| N#Cc1ccc2oc(=O)n(CC(=O)c3c[nH]c4ccccc34)c2c1 | Chromodomain Y-like protein (Homo sapiens, UniProt Q9Y232) | Kd | 96.7 |
| CCCC(=O)Nc1ccc(Cl)c(NC(=O)COc2ccccc2OC)c1 | Chromodomain Y-like protein (Homo sapiens, UniProt Q9Y232) | Kd | 14.2 |
| CC(C)N1C(=O)[C@@](O)(CC(=O)c2cccc3ccccc23)c2ccccc21 | Chromodomain Y-like protein (Homo sapiens, UniProt Q9Y232) | Kd | 55.3 |
| COc1cccc(C(=O)CC2(O)C(=O)Nc3ccc(Cl)cc32)c1 (racemic) | Chromodomain Y-like protein (Homo sapiens, UniProt Q9Y232) | Kd | 4.9 |
| CN(C)C1CCN(C(=O)Cn2c(=O)oc3ccccc32)CC1 | Chromodomain Y-like protein (Homo sapiens, UniProt Q9Y232) | Kd | 9.5 |
| N#Cc1ccc2oc(=O)n(CC(=O)c3ccc4ccccc4c3)c2c1 | Chromodomain Y-like protein (Homo sapiens, UniProt Q9Y232) | Kd | 101 |
| CCN(CC)CCCC[C@H](NC(=O)[C@H](CC(C)C)NC(=O)[C@H](C)NC(=O)[C@H](Cc1ccccc1)NC(=O)c1ccc(C(C)(C)C)cc1)C(=O)N[C@@H](CO)C(=O)OC ({Benzoyl(4-tBu)}-FAL[Lys(Et2)]S-OMe) | Chromodomain Y-like protein (Homo sapiens, UniProt Q9Y232) | Kd | 5.6 |
